This listing pairs molecules with measured normalized growth.
assay.comment: chemical genetic growth profiling, strain panel (AID 1159580);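 further: tested at 20 µM; growth read once vehicle control cultures reached saturation at 30 °C; 1 = growth at the plate median or of vehicle wells; lower values mean less growth of the strain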
test.settings: S. cerevisiae deletion strains, growth OD, locus YLR384C, strain iki3, active compounds read low
Out of some 5,500 compounds screened, about 2,000 (36%) were called active. About 18% were inconclusive and are not listed. The list shows a part of the results.
measurement.label: normalized growth

CC(=O)Oc1ccc(O)cc1    0.997
CCCSc1ccc2nc(NC(=O)OC)[nH]c2c1    0.997
O=C1NC(O)=NC1(c1ccccc1)c1ccccc1    1.01
COc1ccccc1OCC(O)CO (configuration not stated)    1.02
CC1(C)CC2C1CC[C@]1(CBr)CCC3C(CC(=O)O)C(=O)O[C@@]32C1 (some centres not stated)    1.01
CN(C)CCCN1c2ccccc2CCc2ccc(Cl)cc21    1
CC12CCC3C(CC3(C)C)C(C)(CCC1=O)O2 (configuration not stated)    1
CN(C)C(=O)Oc1cccc([N+](C)(C)C)c1    1
CN(C)[C@@H]1C(=O)C(C(N)=O)=C(O)[C@@]2(O)C(=O)C3=C(O)c4c(O)ccc(Cl)c4[C@@](C)(O)[C@H]3C[C@@H]12    0.995
CN(C)CCCN1c2ccccc2Sc2ccc(C(F)(F)F)cc21    1.01
COC(=O)c1c(OC)cc2c(c1C)Oc1c(Cl)c(OC(C)=O)c(Cl)c(C)c1C(=O)O2    0.961
COC(=O)c1c(OC)cc2c(c1C)Oc1c(Cl)c(O)c(Cl)c(C)c1C(=O)O2    0.994
